The following compounds are listed with their measured IC50 values.
# assay_system: C-Raf kinase (SEQ ID NO: 2) (Homo sapiens, UniProt P04049, Y340D/Y341D)
# Construct: C-Raf residues 306-end; Y340D, Y341D with; GST (N); purchased Sigma
# Sequence (P04049 307-648 Y340D/Y341D): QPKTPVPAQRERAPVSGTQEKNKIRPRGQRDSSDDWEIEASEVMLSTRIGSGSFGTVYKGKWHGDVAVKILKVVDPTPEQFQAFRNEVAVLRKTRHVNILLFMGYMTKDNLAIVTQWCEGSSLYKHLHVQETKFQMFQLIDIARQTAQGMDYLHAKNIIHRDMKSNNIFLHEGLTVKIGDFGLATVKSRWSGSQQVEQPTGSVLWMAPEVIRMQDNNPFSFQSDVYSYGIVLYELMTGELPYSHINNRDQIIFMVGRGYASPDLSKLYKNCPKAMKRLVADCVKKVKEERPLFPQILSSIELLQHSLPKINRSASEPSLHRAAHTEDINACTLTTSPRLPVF
# assay_name: Biochemical Assay for C-Raf (coupled pyruvate kinase/lactate dehydrogenase assay)
# test_parameters: 1 mM ATP; read-out: CRAF (inhibition of biochemical activity, IC50)

item_smiles: Cc1ccc(NC(=O)c2cc(C3CC3)cnn2)cc1-c1ccnc(-c2cnn(C)n2)c1
assay_system: C-Raf kinase (SEQ ID NO: 2) (Homo sapiens, UniProt P04049, Y340D/Y341D)
IC50: 100 to 500 nM

So the reported IC50 for CNc1cc(-c2cc(-c3cc(NC(=O)c4cc(C(F)(F)F)cnn4)ccc3C)ccn2)ccn1 , on C-Raf kinase (SEQ ID NO: 2) (Homo sapiens, UniProt P04049, Y340D/Y341D), turned out to be 100 to 500 nM

So the reported IC50 for COc1cnnc(C(=O)Nc2ccc(C)c(-c3ccnc(-c4ccnc(NC(=O)C5CC5)c4)c3)c2)c1 , on C-Raf kinase (SEQ ID NO: 2) (Homo sapiens, UniProt P04049, Y340D/Y341D), turned out to be < 100 nM

So the reported IC50 for Cc1ccc(NC(=O)c2cc(N)cnn2)cc1-c1ccnc(-c2ccnc(NC(=O)C3CC3)c2)c1 , on C-Raf kinase (SEQ ID NO: 2) (Homo sapiens, UniProt P04049, Y340D/Y341D), turned out to be 100 to 500 nM

So the reported IC50 for Cc1ccc(NC(=O)c2cc(C3CC3)cnn2)cc1-c1ccnc(-c2ccsc2)c1 , on C-Raf kinase (SEQ ID NO: 2) (Homo sapiens, UniProt P04049, Y340D/Y341D), turned out to be 1000 to 10000 nM

So the reported IC50 for Cc1ccc(NC(=O)c2cncc(C(C)(C)C#N)c2)cc1-c1cncc(-c2ccnc(NC(=O)C3CC3)c2)n1 , on C-Raf kinase (SEQ ID NO: 2) (Homo sapiens, UniProt P04049, Y340D/Y341D), turned out to be < 100 nM

So the reported IC50 for Cc1ccc(NC(=O)c2cc(C(F)(F)F)cnn2)cc1-c1cccc(-c2cc(NC(=O)C3CC3)ncn2)c1 , on C-Raf kinase (SEQ ID NO: 2) (Homo sapiens, UniProt P04049, Y340D/Y341D), turned out to be < 100 nM

Origin of the recorded values: patent US20260226084A1
